Source of measurements: the supplement of paper PMC10567573

B1: WDFY2 (parent)
chain: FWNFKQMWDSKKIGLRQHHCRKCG

Variants of: B1
Assay: protein stability index of a GFP-peptide fusion (GPS, HEK-293T) (PSI 1-6); higher = more stable;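 further: lentivirally expressed fusions sorted by FACS into six bins by GFP to DsRed ratio, PSI derived from sequencing read proportions per bin multiplied by bin number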
Settings: c terminus: a fixed tail appended
ENDPOINT LABEL: protein stability index
Please reply with the number alone, leaving off any unit.

Consider the reported protein stability index for these variants:
Input: Can you share its protein stability index? I mean this variant: FWNFKQMWDSKWIGLRQHHCRKCG [K12W]
Output: 2.3

Input: Any idea what protein stability index was measured for FWNFKQMWDSKKIGLRQVHCRKCG [H18V] ?
Output: 1.83

Input: May I ask what protein stability index has been recorded for FYNFKQMWDSKKIGLRQHHCRKCG [W2Y] ?
Output: 2.25

Input: Give the measured protein stability index of FWNFKQMWDSKKIGLRQHHCRKNG [C23N] .
Output: 2.21

Further cases:
Input: Reported protein stability index, variant FWNFKQMWDSDKIGLRQHHCRKCG [K11D] : ____
Output: 2.1

Input: Endpoint output: protein stability index of FWNFKQMWDSKKGGLRQHHCRKCG [I13G] . Value?
Output: 1.99

Input: Give its protein stability index value. Item: FWNFKQMWDSKKIGLRQHHDRKCG [C20D]
Output: 1.89

Input: // returns reported protein stability index for input MWNFKQMWDSKKIGLRQHHCRKCG [F1M]
Output: 1.52

Input: Give the measured protein stability index of FNNFKQMWDSKKIGLRQHHCRKCG [W2N] .
Output: 2.63

Input: If you can, please state the reported protein stability index value of FWNFKQMWDSWKIGLRQHHCRKCG [K11W] .
Output: 1.51

Input: State the recorded protein stability index for this entry: FWNFKQMWDSKKIGLRQHHCEKCG [R21E]
Output: 2.02
